- system_under_test: Testis-specific serine/threonine-protein kinase 1 (Homo sapiens) (UniProt Q9BXA7);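 also: mean percent inhibition of TSSK1, from the GSK PKIS screening dataset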
- Sequence (Q9BXA7 whole entry): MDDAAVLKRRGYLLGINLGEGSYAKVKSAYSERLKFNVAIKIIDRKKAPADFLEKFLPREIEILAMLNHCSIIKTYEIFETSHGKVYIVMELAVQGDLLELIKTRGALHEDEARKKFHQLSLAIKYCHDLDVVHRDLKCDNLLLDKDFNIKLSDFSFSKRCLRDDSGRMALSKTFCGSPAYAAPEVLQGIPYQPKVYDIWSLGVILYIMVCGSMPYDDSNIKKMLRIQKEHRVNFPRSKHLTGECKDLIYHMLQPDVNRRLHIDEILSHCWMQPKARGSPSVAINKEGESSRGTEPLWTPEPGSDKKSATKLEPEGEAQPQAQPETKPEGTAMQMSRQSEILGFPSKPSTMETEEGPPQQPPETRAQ
- condition: at 0.1 µM
In this section we review reported inhibition values for a set of compounds.
The answer is to be given in %; state only the numeric part.

Below are worked cases with known answers.
# compound, inhibition [%]
data = [
    ("Fc1ccc(-c2nc3n(c2-c2ccncc2)CCS3)cc1", 3.08),
    ("CN(c1ccc(NC(=O)Nc2c(Cl)cccc2Cl)cc1)c1ccnc(Nc2cccc(CS(C)(=O)=O)c2)n1", 1.9),
    ("c1ccc(-c2n[nH]cc2-c2ccnc(-c3ccc(OCCN4CCOCC4)cc3)c2)nc1", -1.9),
    ("C#Cc1cccc(Nc2ncnc3ccc(OCCCCNCCS(C)(=O)=O)cc23)c1", 6.03),
    ("COc1ccc2cc(-c3c(-c4ccncc4)nc(-c4ccc(S(C)(=O)=O)cc4C)n3C)ccc2c1", 4.54),
]

Annotate the compound Fc1ccc(-c2ncn(C3CCNCC3)c2-c2ccnc(Oc3ccc(F)c(F)c3)n2)cc1 with its measured inhibition.
1.98

Annotate the compound COc1ccc(-c2ccc3c(NC(=O)C4CC4)n[nH]c3n2)cc1 with its measured inhibition.
2.89

Annotate the compound CCC(=O)Nc1ccc(C)c(-c2ccc(C(=O)NCC3CC3)cc2)c1 with its measured inhibition.
3.66

Annotate the compound CCc1cccc(CC)c1/C=C/c1cncc(C(=O)NC)c1 with its measured inhibition.
1.47

Annotate the compound Fc1ccc(-c2ncn(C3CCNCC3)c2-c2ccnc(Oc3ccc(Oc4ccccc4)cc3)n2)cc1 with its measured inhibition.
4.18
